The reader will find reported inhibition values listed item by item below.
System: Platelet-derived growth factor receptor alpha (Homo sapiens), P16234 [V561D]
Sequence (P16234 whole entry V561D): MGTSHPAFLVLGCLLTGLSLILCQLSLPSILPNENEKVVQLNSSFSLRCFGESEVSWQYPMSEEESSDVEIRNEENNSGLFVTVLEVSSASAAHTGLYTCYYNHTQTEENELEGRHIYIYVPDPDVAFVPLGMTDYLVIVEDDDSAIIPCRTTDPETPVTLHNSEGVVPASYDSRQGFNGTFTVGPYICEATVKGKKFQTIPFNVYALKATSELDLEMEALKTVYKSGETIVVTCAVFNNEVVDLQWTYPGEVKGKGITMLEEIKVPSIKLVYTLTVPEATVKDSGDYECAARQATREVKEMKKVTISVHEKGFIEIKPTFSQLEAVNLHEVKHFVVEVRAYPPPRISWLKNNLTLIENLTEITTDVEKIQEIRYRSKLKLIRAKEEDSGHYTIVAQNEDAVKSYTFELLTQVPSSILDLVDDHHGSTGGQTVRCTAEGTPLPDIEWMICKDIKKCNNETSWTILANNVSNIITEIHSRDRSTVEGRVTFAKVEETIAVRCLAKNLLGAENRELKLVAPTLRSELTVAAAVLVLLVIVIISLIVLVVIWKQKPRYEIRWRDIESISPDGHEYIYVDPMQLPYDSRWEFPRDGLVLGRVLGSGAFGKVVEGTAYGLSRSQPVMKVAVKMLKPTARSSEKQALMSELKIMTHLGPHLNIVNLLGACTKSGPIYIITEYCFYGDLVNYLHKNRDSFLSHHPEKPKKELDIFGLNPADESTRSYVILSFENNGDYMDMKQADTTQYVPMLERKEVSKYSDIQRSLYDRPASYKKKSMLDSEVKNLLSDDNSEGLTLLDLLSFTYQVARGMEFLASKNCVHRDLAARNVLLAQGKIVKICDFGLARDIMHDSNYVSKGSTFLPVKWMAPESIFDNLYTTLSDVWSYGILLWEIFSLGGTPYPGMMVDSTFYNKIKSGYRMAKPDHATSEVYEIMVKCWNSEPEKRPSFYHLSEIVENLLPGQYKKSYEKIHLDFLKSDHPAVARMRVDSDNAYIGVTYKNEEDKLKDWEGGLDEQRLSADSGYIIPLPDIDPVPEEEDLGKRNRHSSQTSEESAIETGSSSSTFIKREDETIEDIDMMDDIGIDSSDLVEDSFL
Conditions: at 0.1 µM
quantity: inhibition

1. Cc1nc(-c2ccccc2)n2nc(NCCCN3CCOCC3)ncc12; 2.27%
2. OCc1ccc(-c2nc(-c3ccccn3)c(-c3ccc4c(c3)OCO4)[nH]2)cc1; 3.57%
3. CC(C)c1ccc(Nc2nccc(-c3cnn4ncccc34)n2)cc1; 18.9%
4. CS(=O)(=O)CCNCc1nc(-c2ccc3ncnc(Nc4ccc(OCc5cccc(C(F)(F)F)c5)cc4)c3c2)cs1; 4.8%
5. O=C1Nc2ccccc2/C1=C/Nc1ccc2[nH]c(=O)[nH]c2c1; 26.1%
6. O=S(=O)(CCOCc1ccc(-c2ccc3ncnc(Nc4ccc(OCc5cccc(F)c5)c(Cl)c4)c3c2)o1)c1ccccc1; 3.15%
7. Oc1cccc(-c2nc(-c3ccccc3)[nH]c2-c2ccncc2)c1; 2.42%
8. CCS(=O)(=O)c1ccc(OC)c(Nc2ncc(-c3cccc(OC)c3)o2)c1; 19.6%
9. COc1cccc(-n2ncc3c(N/N=C/c4ccc(C)cc4)ncnc32)c1; 7.1%
10. COC(=O)Nc1nc2cc(Oc3ccc(NC(=O)Nc4cccc(Br)c4)cc3)ccc2[nH]1; 84%
11. CN1CCN(C(=O)c2ccc(NC(=O)Nc3ccc(N(C)c4ccnc(Nc5ccc(CS(C)(=O)=O)cc5)n4)cc3)cc2)CC1; 75.2%
12. c1ccc(Cc2nc3ccc(Nc4ncnc5ccccc45)cc3[nH]2)cc1; 3.34%
13. COc1cccc(-n2nc(C)c3c(N/N=C(\C)c4ccncc4)ncnc32)c1; 0.1%
14. ON=C1CCc2cc(-c3nc(C4CCNCC4)[nH]c3-c3ccncc3)ccc21; 1.54%
15. COc1ccc2ncnc(Nc3ccc(OCc4ccccc4)cc3)c2c1; 1.76%
16. CN(C)C(=O)O[C@@H]1CN[C@@H](C#Cc2cc3ncnc(Nc4ccc(OCc5cccc(F)c5)c(Cl)c4)c3s2)C1; 0.98%
17. C[C@@H](Oc1cc(-n2cnc3ccc(OC[C@@H](O)CO)cc32)sc1C(N)=O)c1ccccc1Cl; 7.79%

###

Target: Muscle, skeletal receptor tyrosine-protein kinase (Homo sapiens) (UniProt O15146);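 further: reported value is the mean percent inhibition of MuSK kinase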
Sequence (O15146 whole entry): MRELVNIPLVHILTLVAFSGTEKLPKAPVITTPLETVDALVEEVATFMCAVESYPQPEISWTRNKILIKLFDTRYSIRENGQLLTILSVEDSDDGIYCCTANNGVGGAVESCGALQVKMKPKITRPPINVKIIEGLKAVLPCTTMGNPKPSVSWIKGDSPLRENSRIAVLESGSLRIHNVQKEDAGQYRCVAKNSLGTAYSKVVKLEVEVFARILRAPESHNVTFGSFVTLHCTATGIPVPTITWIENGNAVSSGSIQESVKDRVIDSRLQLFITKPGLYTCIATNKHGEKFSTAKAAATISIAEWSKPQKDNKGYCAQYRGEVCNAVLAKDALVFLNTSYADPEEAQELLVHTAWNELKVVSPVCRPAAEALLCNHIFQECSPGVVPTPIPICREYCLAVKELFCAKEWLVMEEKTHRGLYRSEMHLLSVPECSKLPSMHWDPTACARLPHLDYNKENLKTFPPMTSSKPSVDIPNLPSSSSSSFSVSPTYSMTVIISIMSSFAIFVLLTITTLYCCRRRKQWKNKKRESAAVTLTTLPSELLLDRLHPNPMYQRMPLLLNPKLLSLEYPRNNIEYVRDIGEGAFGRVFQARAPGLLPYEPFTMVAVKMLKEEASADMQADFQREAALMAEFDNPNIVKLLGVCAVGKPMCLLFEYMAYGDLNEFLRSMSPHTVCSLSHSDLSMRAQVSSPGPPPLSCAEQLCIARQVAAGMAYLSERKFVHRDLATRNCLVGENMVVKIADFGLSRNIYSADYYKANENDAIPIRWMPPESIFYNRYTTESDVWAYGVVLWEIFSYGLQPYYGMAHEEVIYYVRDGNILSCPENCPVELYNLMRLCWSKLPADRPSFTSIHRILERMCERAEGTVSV
Conditions: at 1 µM
quantity: inhibition (%)

1) Cc1nc(-c2ccccc2)n2nc(NCCCN3CCOCC3)ncc12; 5.56
2) NS(=O)(=O)c1cccc(-c2cc3ccncc3cc2OCc2ccccc2)c1; 4.58
3) Cc1cc(Cl)cc2c1NC(=O)C2=NNc1ccc(S(N)(=O)=O)cc1; 0.5
4) Cc1ccc2c(-c3ccnc(Nc4cccc(C(F)(F)F)c4)n3)c(-c3ccccc3)nn2n1; 5.46
5) CCS(=O)(=O)c1ccc(OC)c(Nc2nccc(N(C)c3ccc4c(C)n[nH]c4c3)n2)c1; 1.07
6) Cc1cc(O)cc(C)c1/C=C/c1cncc(C(=O)N(C)C)c1; 8.5
7) Cc1ccc(Nc2ccnc(Nc3cccc(C(N)=O)c3)n2)cc1O; 26.7
8) COc1cccc(-n2ncc3c(N/N=C/c4ccc(S(C)(=O)=O)cc4)ncnc32)c1; 23.3
9) CN(C)CCCn1c(-c2nonc2N)nc2cnccc21; 4.01
10) N#Cc1cccc(Nc2nccc(-c3cnn4ncccc34)n2)c1; 24.6
11) Cc1cc(-c2ccccn2)cc(C)c1/C=C/c1cncc(-c2nn[nH]n2)c1; 5.02
12) COc1cc2ncn(-c3cc(OCc4ccccc4S(C)(=O)=O)c(C#N)s3)c2cc1OC; 50.6

###

The reader will find reported inhibition values listed item by item below.
System: Serine/threonine-protein kinase B-raf (Homo sapiens), P15056 [V600E];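 further: mean inhibition of the BRAF V599E mutant, from GSK PKIS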
Sequence (P15056 whole entry V600E): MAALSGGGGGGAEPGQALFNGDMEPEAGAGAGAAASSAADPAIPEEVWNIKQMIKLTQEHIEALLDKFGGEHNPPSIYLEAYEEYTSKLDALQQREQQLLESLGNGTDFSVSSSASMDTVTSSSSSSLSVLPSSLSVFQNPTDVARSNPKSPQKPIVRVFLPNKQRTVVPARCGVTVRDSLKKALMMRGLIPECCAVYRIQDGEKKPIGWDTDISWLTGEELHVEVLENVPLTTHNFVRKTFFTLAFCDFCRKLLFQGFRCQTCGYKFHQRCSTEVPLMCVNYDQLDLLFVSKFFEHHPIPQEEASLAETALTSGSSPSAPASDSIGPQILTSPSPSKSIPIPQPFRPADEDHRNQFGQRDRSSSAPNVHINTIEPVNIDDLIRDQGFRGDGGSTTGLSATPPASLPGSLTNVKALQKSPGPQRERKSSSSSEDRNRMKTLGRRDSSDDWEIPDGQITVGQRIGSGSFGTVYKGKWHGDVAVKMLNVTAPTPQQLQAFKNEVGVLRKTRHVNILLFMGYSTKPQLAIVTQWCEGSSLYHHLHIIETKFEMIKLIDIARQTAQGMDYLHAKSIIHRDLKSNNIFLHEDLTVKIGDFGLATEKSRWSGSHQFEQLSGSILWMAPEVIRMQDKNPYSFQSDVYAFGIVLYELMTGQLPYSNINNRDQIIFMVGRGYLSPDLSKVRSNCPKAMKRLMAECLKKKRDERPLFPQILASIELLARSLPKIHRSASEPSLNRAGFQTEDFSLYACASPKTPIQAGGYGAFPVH
Settings: at 0.1 µM
Description: GSK_PKIS: BRAF (V599E mutant) mean inhibition at 0.1 uM [Nanosyn]
quantity: inhibition (%)

1) COc1cccc(-n2ncc3c(N/N=C/c4ccc(S(C)(=O)=O)cc4)ncnc32)c1; 8.25
2) Cc1ccc(NC(=O)CC2CC2)cc1-c1ccc(C(=O)NCC2CC2)cc1; 4.33
3) CC(C)c1ccc2c(c1)NC(=O)/C2=N/Nc1ccc(S(N)(=O)=O)cc1; 0.24
4) Cc1ccc(Nc2ccnc(Nc3cccc(C(N)=O)c3)n2)cc1O; 5.95
5) Cc1cc(O)cc(C)c1/C=C/c1cncc(C(=O)N(C)C)c1; 4.11
6) CCOc1nccc2c1nc(-c1nonc1N)n2CC; 3.44
7) N#Cc1cccc(Nc2nccc(-c3cnn4ncccc34)n2)c1; 18.8
8) CCS(=O)(=O)c1ccc(OC)c(Nc2nccc(N(C)c3ccc4c(C)n[nH]c4c3)n2)c1; 5.33
9) NS(=O)(=O)c1cccc(Nc2cc(-c3ccc(F)cc3)n[nH]2)c1; 3.81
10) CN(c1ccc(NC(=O)Nc2ccc(OC(F)(F)F)cc2)cc1)c1ccnc(Nc2cccc(S(N)(=O)=O)c2)n1; 4.82

###

The reader will find reported inhibition values listed item by item below.
Target: Leucine-rich repeat serine/threonine-protein kinase 2 (Homo sapiens) (UniProt Q5S007);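 further: reported values are averaged percent inhibition of LRRK2 kinase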
Conditions: at 0.1 µM
quantity: inhibition (%)

1. Cc1ccc(O)cc1Nc1ccnc2ccc(S(C)(=O)=O)cc12; 4.8
2. CS(=O)(=O)Nc1cccc(-c2ccc3c(NC(=O)C4CC4)n[nH]c3c2)c1; 1.1
3. Cc1ccc2c(-c3ccnc(Nc4ccc5c(c4)OCCO5)n3)c(-c3ccc(C(F)(F)F)cc3)nn2n1; 2.01
4. COc1cc(Nc2nccc(-c3cnn4ncccc34)n2)cc(OC)c1; 18.7
5. CCCN1CCCC(c2ccc(Nc3nc(Nc4cc(F)ccc4C(N)=O)c4cc[nH]c4n3)c(OC)c2)C1 (stereo not drawn); 86.9
6. CN(C)c1cc2c(Nc3ccc4c(cnn4Cc4ccccc4)c3)ncnc2cn1; 3.31
7. CCS(=O)(=O)c1ccc(OC)c(Nc2nccc(N(C)c3ccc4c(C)n[nH]c4c3)n2)c1; 5.36
8. N#Cc1cccc(Nc2nccc(-c3cnn4ncccc34)n2)c1; 4.57
9. CCOc1nccc2c1nc(-c1nonc1N)n2CC; 3.98
10. NS(=O)(=O)c1cccc(Nc2cc(-c3ccc(F)cc3)n[nH]2)c1; 4.6
11. C[C@@H](Oc1cc(-n2cnc3ccc(OC[C@@H](O)CO)cc32)sc1C(N)=O)c1ccccc1Cl; 3.25
12. Cc1ccc2c(-c3ccnc(Nc4cccc(C(F)(F)F)c4)n3)c(-c3ccccc3)nn2n1; 1.87
13. O=S(=O)(CCOCc1ccc(-c2ccc3ncnc(Nc4ccc(OCc5cccc(F)c5)c(Cl)c4)c3c2)o1)c1ccccc1; 4.19
14. OCc1ccc(-c2nc(-c3ccccn3)c(-c3ccc4c(c3)OCO4)[nH]2)cc1; 4.19
15. ON=C1CCc2cc(-c3nc(C4CCNCC4)[nH]c3-c3ccncc3)ccc21; 1.51
16. COc1ccc(-c2nn3ncccc3c2-c2ccnc(Nc3cccc(C(F)(F)F)c3)n2)cc1; 2.5
17. NC(=O)c1sc(-n2cnc3ccccc32)cc1OCc1ccccc1Br; 1.66
18. COc1cccc(-n2ncc3c(N/N=C/c4ccc(S(C)(=O)=O)cc4)ncnc32)c1; -1.93
19. FC(F)(F)c1ccc(-c2nn3ncccc3c2-c2ccnc(Nc3ccc4c(c3)OCCO4)n2)cc1; 4.63
20. COC(=O)c1ccc2c(c1)C(=Cc1cc(Br)c(O)c(Br)c1)C(=O)N2; 29.1
21. CN(C)C(=O)O[C@@H]1CN[C@@H](C#Cc2cc3ncnc(Nc4ccc(OCc5cccc(F)c5)c(Cl)c4)c3s2)C1; 0.07
22. Cc1ccc(C(=O)NC2CC2)cc1-c1ccc2[nH]ncc2c1; -0.67
23. Nc1ccc(C#Cc2cncnc2Nc2ccc(OCc3cccc(F)c3)c(Cl)c2)cc1; 2.69

###

Molecular target: Serine/threonine-protein kinase PAK 1 (Homo sapiens) (UniProt Q13153);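 further: values are mean PAK1 inhibition from the GSK PKIS kinase inhibitor set screen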
Sequence (Q13153 whole entry): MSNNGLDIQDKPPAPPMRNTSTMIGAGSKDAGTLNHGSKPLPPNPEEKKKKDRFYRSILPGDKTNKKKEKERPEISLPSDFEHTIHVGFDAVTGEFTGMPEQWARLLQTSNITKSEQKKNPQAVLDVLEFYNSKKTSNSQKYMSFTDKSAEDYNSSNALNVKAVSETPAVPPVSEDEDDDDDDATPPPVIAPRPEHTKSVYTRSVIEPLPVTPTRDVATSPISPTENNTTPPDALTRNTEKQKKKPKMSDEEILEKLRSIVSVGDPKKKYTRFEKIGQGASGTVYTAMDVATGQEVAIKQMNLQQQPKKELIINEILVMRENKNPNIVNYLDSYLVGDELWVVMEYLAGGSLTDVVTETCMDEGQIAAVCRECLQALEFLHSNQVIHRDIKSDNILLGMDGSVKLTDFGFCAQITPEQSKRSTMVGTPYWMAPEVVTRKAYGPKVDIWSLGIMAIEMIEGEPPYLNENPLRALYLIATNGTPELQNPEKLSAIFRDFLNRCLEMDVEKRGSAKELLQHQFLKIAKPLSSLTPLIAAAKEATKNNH
Conditions: at 0.1 µM
The reader will find reported inhibition values listed item by item below.
quantity: inhibition

1) COc1cccc(-n2ncc3c(N/N=C/c4ccc(S(C)(=O)=O)cc4)ncnc32)c1; 2.37%
2) COc1cc2ncnc(Nc3ccc(C)c(O)c3)c2cc1OC; 6.98%
3) ON=C1CCc2cc(-c3nc(C4CCNCC4)[nH]c3-c3ccncc3)ccc21; 2.01%
4) NS(=O)(=O)c1ccc(N/N=C2\C(=O)Nc3ccc(Cl)cc32)cc1; 3.14%
5) Nc1ccc(C#Cc2cncnc2Nc2ccc(OCc3cccc(F)c3)c(Cl)c2)cc1; 0.57%
6) COc1cc(Nc2nccc(-c3cnn4ncccc34)n2)cc(OC)c1; -0.14%
7) Cc1cc(O)cc(C)c1/C=C/c1cncc(C(=O)N(C)C)c1; 2.77%
8) NS(=O)(=O)c1cccc(-c2cc3ccncc3cc2OCc2ccccc2)c1; 7.59%
9) COc1cc(/C=N/Nc2ncnc3c2cnn3C(C)C)ccc1O; 3.62%
10) COc1cc2ncnc(Nc3ccc4c(cnn4Cc4ccccc4)c3)c2cc1OC; 4.26%
11) Nc1nccc(-c2c(-c3ccc(F)cc3)nn3cc(C(F)(F)F)ccc23)n1; 0.65%
12) CCS(=O)(=O)c1ccc(OC)c(Nc2nccc(N(C)c3ccc4c(C)n[nH]c4c3)n2)c1; 3.86%
13) CN(c1ccc(NC(=O)Nc2ccc(OC(F)(F)F)cc2)cc1)c1ccnc(Nc2cccc(S(N)(=O)=O)c2)n1; 1.61%
14) C[C@@H](Oc1cc(-n2cnc3ccc(OCC4CCN(C)CC4)cc32)sc1C(N)=O)c1ccccc1C(F)(F)F; -2.64%
15) FC(F)(F)c1ccc(-c2nn3ncccc3c2-c2ccnc(Nc3ccc4c(c3)OCCO4)n2)cc1; 4.61%
16) COc1cccc(-n2nc(C)c3c(N/N=C(\C)c4ccncc4)ncnc32)c1; -1.07%
17) NS(=O)(=O)c1ccc(NC=C2C(=O)Nc3ccc4ncsc4c32)cc1; 7.91%
18) COc1cc2ncn(-c3cc(OCc4ccccc4S(C)(=O)=O)c(C#N)s3)c2cc1OC; 6.88%
19) O=C1Nc2ccccc2/C1=C/Nc1ccc2[nH]c(=O)[nH]c2c1; 10.5%
20) Cc1ccc(C(=O)NC2CC2)cc1-c1ccc2[nH]ncc2c1; -0.61%
21) CN(C)C(=O)O[C@@H]1CN[C@@H](C#Cc2cc3ncnc(Nc4ccc(OCc5cccc(F)c5)c(Cl)c4)c3s2)C1; 1.48%
22) N#Cc1c(NC(=O)c2ccccc2F)sc2c1CCCC2; -3.89%
23) CN1CCN(C(=O)c2ccc(NC(=O)Nc3ccc(N(C)c4ccnc(Nc5ccc(CS(C)(=O)=O)cc5)n4)cc3)cc2)CC1; -0.46%
24) CN(C)C(=O)O[C@H]1CN[C@H](C#Cc2cc3ncnc(Nc4ccc(OCc5cccc(F)c5)c(Cl)c4)c3s2)C1; 4.28%
25) C[C@@H](Oc1cc(-n2cnc3ccc(OC[C@@H](O)CO)cc32)sc1C(N)=O)c1ccccc1Cl; -2.19%
26) CCn1c(-c2nonc2N)nc2ccc(F)cc21; 12%
27) CN(C)CCCn1c(-c2nonc2N)nc2cnccc21; 6.36%
28) COc1cccc(-n2ncc3c(N/N=C/c4ccc(C)cc4)ncnc32)c1; 10%
29) COC(=O)c1ccc2c(c1)C(=Cc1cc(Br)c(O)c(Br)c1)C(=O)N2; 8.19%
30) Cc1ccc2c(c1)/C(=N/Nc1ccc(S(N)(=O)=O)cc1)C(=O)N2; -1.7%
31) Cc1ccc2c(-c3ccnc(Nc4ccc5c(c4)OCCO5)n3)c(-c3ccc(C(F)(F)F)cc3)nn2n1; 0.57%
32) NS(=O)(=O)c1ccc(-c2cc3ccncc3cc2OCc2ccccc2)cc1; 5.31%
33) c1ccc(Cc2nc3ccc(Nc4ncnc5ccccc45)cc3[nH]2)cc1; 4.28%

Hey, just so you know, these numbers are from ChEMBL document CHEMBL1961873.
